# Species on record: Rattus norvegicus
# procedure text: Open TG-GATES - Regimen: Single
# Assay type: toxicity, organism-based, Sprague-Dawley
# Parameters: regimen Single, gender Male, age 6 weeks
# run parameters: in vivo, po, 30 mg/kg, 9 h, tissue Plasma, route gavage, dose level Middle
measurement label: TP (g/dL)
All answers are understood in g/dL, so give the number only.

CN(C)CCCN1c2ccccc2CCc2ccccc21 [IMIPRAMINE]: 5.3
CN(C)CCCN1c2ccccc2CCc2ccc(Cl)cc21 [CLOMIPRAMINE]: 5.4
CC1=C(/C=C/C(C)=C/C=C/C(C)=C/CO)C(C)(C)CCC1 [RETINOL]: 5.5

Now for another entry.
Q: Consider the compound shown here: CN(C)CCN(Cc1cccs1)c1ccccn1 What is its recorded TP?
A: 5.5

* * *

# Species on record: Rattus norvegicus
# procedure text: Open TG-GATES - Regimen: Daily Repeat
# Format: toxicity, organism-based, Sprague-Dawley
# Design: regimen Daily Repeat, gender Male, age 6 weeks
# run parameters: in vivo, po, 1000 mg/kg, […], tissue Plasma, route gavage, dose level High, time 7 day
measurement label: TC (mg/dL)
Just the number in mg/dL, nothing appended.

CCOc1ccc(NC(=O)CC(C)O)cc1 (stereo not drawn): 74.6
COc1ccc2[nH]c([S+]([O-])Cc3ncc(C)c(OC)c3C)nc2c1 (stereo not drawn): 117.6

We now examine a further compound.
Q: Please look up its TC: NC(N)=Nc1nc(CSCCC(N)=NS(N)(=O)=O)cs1
A: 79

* * *

# TG values compiled below
# Species on record: Rattus norvegicus
# procedure text: Open TG-GATES - Regimen: Single
# Type: toxicity, organism-based, Sprague-Dawley
# Set-up: regimen Single, gender Male, age 6 weeks
# run parameters: in vivo, po, 0 mg/kg, 6 h, tissue Plasma, route gavage, dose level Control
Remember to put the unit after the number in your answer.

CCCNC(=O)NS(=O)(=O)c1ccc(Cl)cc1 [CHLORPROPAMIDE]: 50.6 mg/dL
COC1=CC(=O)C[C@@H](C)[C@]12Oc1c(Cl)c(OC)cc(OC)c1C2=O [GRISEOFULVIN]: 63.2 mg/dL
CC/C(=C(\c1ccccc1)c1ccc(OCCN(C)C)cc1)c1ccccc1 [TAMOXIFEN]: 59 mg/dL

Q: What does the record list as TG for NC(N)=Nc1nc(CSCCC(N)=NS(N)(=O)=O)cs1 [FAMOTIDINE] ?
A: 60 mg/dL

Q: Check CN1C(=O)CN=C(c2ccccc2)c2cc(Cl)ccc21 [DIAZEPAM] too.
A: 84.2 mg/dL

* * *

# Organism: Rattus norvegicus
# procedure text: Open TG-GATES - Regimen: Daily Repeat
# Format: toxicity, organism-based, Sprague-Dawley
# Parameters: regimen Daily Repeat, gender Male, age 6 weeks
# run parameters: in vivo, po, 100 mg/kg, 72 h, tissue Kidney, route gavage, dose level Low, time 3 day
measurement label: KIDNEY_R (g)
Expressed in g, but write only the number.

Solved entries (count: 4):
CCOC(=O)CCC(=O)O[C@H]1[C@H](O[C@@H]2[C@@H](C)[C@H](O[C@H]3C[C@@](C)(OC)[C@@H](O)[C@H](C)O3)[C@@H](C)C(=O)O[C@H](CC)[C@@](C)(O)[C@H](O)[C@@H](C)C(=O)[C@H](C)C[C@@]2(C)O)O[C@H](C)C[C@@H]1N(C)C [ERYTHROMYCIN ETHYLSUCCINATE]: 1
NC(N)=Nc1nc(CSCCC(N)=NS(N)(=O)=O)cs1 [FAMOTIDINE]: 1
CCOc1ccc(NC(=O)CC(C)O)cc1 (stereo not given) [BUCETIN]: 1.1
COC1=CC(=O)C[C@@H](C)[C@]12Oc1c(Cl)c(OC)cc(OC)c1C2=O [GRISEOFULVIN]: 1

From here, focus on the item given below.
Q: Data request, read-out KIDNEY_R, for COc1ccc2[nH]c([S+]([O-])Cc3ncc(C)c(OC)c3C)nc2c1 (stereo not given) [OMEPRAZOLE]
A: 1.1

* * *

# Organism: Rattus norvegicus
# procedure text: Open TG-GATES - Regimen: Single
# Type: toxicity, organism-based, Sprague-Dawley
# Parameters: regimen Single, gender Male, age 6 weeks
# run parameters: in vivo, po, 0 mg/kg, 24 h, tissue Blood, route gavage, dose level Control
measurement label: Ret (%)
Numeric only. Scale: %

CN1C(=O)CN=C(c2ccccc2)c2cc(Cl)ccc21 [DIAZEPAM]: 7.7
O=C(CCCN1CCC(O)(c2ccc(Cl)cc2)CC1)c1ccc(F)cc1 [HALOPERIDOL]: 8.9
CCOc1ccc(NC(=O)CC(C)O)cc1 (centres undefined) [BUCETIN]: 7.6
COC1=CC(=O)C[C@@H](C)[C@]12Oc1c(Cl)c(OC)cc(OC)c1C2=O [GRISEOFULVIN]: 8

Q: Fill in: Ret of COc1ccc2[nH]c([S+]([O-])Cc3ncc(C)c(OC)c3C)nc2c1 (centres undefined) [OMEPRAZOLE] is ___
A: 6.6

Q: Now consider C[C@@H]1C[C@H]2[C@@H]3CCC4=CC(=O)C=C[C@]4(C)[C@@]3(F)[C@@H](O)C[C@]2(C)[C@@]1(O)C(=O)CO [DEXAMETHASONE] .
A: 7.6

Q: Further, for CN(C)CCCN1c2ccccc2CCc2ccc(Cl)cc21 [CLOMIPRAMINE] ?
A: 7.4

Q: Also, NNC(=O)c1ccncc1 [ISONIAZID] please.
A: 7.2

Q: Same question for CN(C)CCCN1c2ccccc2CCc2ccccc21 [IMIPRAMINE] please.
A: 7.8

* * *

# Organism: Rattus norvegicus
# procedure text: Open TG-GATES - Regimen: Single
# Type: toxicity, organism-based, Sprague-Dawley
# Set-up: regimen Single, gender Male, age 6 weeks
# run parameters: in vivo, po, 0 mg/kg, 6 h, tissue Plasma, route gavage, dose level Control
measurement label: IP (mg/dL)
Report as a plain number; the unit mg/dL is understood.

CC/C(=C(\c1ccccc1)c1ccc(OCCN(C)C)cc1)c1ccccc1: 10

Q: Query (compound): CC(C)OC(=O)C(C)(C)Oc1ccc(C(=O)c2ccc(Cl)cc2)cc1 [FENOFIBRATE] ; field requested: IP
A: 9.7

Q: Now the compound COc1ccc2[nH]c([S+]([O-])Cc3ncc(C)c(OC)c3C)nc2c1 (stereo not drawn)
A: 8.8

Q: COC1=CC(=O)C[C@@H](C)[C@]12Oc1c(Cl)c(OC)cc(OC)c1C2=O , same question.
A: 10

Q: Now give it for CN(C)CCCN1c2ccccc2CCc2ccc(Cl)cc21 too.
A: 9.8

Q: Would you kindly repeat that for CCOc1ccc(NC(=O)CC(C)O)cc1 (stereo not drawn) ?
A: 9.2

Q: Do the same for CN(C)CCN(Cc1cccs1)c1ccccn1 please
A: 9

Q: Same question, CCOC(=O)CCC(=O)O[C@H]1[C@H](O[C@@H]2[C@@H](C)[C@H](O[C@H]3C[C@@](C)(OC)[C@@H](O)[C@H](C)O3)[C@@H](C)C(=O)O[C@H](CC)[C@@](C)(O)[C@H](O)[C@@H](C)C(=O)[C@H](C)C[C@@]2(C)O)O[C@H](C)C[C@@H]1N(C)C [ERYTHROMYCIN ETHYLSUCCINATE] this time
A: 8.9

* * *

# Species: Rattus norvegicus
# procedure text: Open TG-GATES - Regimen: Daily Repeat
# Type: toxicity, organism-based, Sprague-Dawley
# Parameters: regimen Daily Repeat, gender Male, age 6 weeks
# run parameters: in vivo, po, 10 mg/kg, […], tissue Plasma, route gavage, dose level Low, time 28 day
Listed below: GLC values for each entry.
Give just the number in mg/dL; leave the unit off.

CN(C)CCN(Cc1cccs1)c1ccccn1: 189
CN(C)CCCN1c2ccccc2CCc2ccccc21: 183.2
CC(C)OC(=O)C(C)(C)Oc1ccc(C(=O)c2ccc(Cl)cc2)cc1 [FENOFIBRATE]: 187.6

Now consider the entry below.
Q: Would you mind telling me what GLC value was observed for CC1=C(/C=C/C(C)=C/C=C/C(C)=C/CO)C(C)(C)CCC1 ?
A: 182.8

* * *

# Species on record: Rattus norvegicus
# procedure text: Open TG-GATES - Regimen: Daily Repeat
# Type: toxicity, organism-based, Sprague-Dawley
# Design: regimen Daily Repeat, gender Male, age 6 weeks
# run parameters: in vivo, po, 1000 mg/kg, 72 h, tissue Blood, route gavage, dose level High, time 3 day
measurement label: Ht (%)
Give the value in % but do not write % after it.

See these solved cases before continuing.
NC(N)=Nc1nc(CSCCC(N)=NS(N)(=O)=O)cs1: 36.9
COC1=CC(=O)C[C@@H](C)[C@]12Oc1c(Cl)c(OC)cc(OC)c1C2=O: 39.9
CCOC(=O)CCC(=O)O[C@H]1[C@H](O[C@@H]2[C@@H](C)[C@H](O[C@H]3C[C@@](C)(OC)[C@@H](O)[C@H](C)O3)[C@@H](C)C(=O)O[C@H](CC)[C@@](C)(O)[C@H](O)[C@@H](C)C(=O)[C@H](C)C[C@@]2(C)O)O[C@H](C)C[C@@H]1N(C)C [ERYTHROMYCIN ETHYLSUCCINATE]: 41.8
CCOc1ccc(NC(=O)CC(C)O)cc1 (stereo unspecified): 38.4
COc1ccc2[nH]c([S+]([O-])Cc3ncc(C)c(OC)c3C)nc2c1 (stereo unspecified): 39.6

We next turn to a different molecule, shown below.
Q: Would you mind telling me what Ht value was observed for CC(C)OC(=O)C(C)(C)Oc1ccc(C(=O)c2ccc(Cl)cc2)cc1 [FENOFIBRATE] ?
A: 39.5
